The origin of these recorded values is patent US20240101576A1.

# test.target: EGFR exon 20 SVD Ins D770_N771 (Ba/F3 cells) (Homo sapiens, UniProt P00533, INS770SVD)
# Construct: expressed in transfected cells; host or cells: Ba/F3 (murine pro-B cells), retroviral transduction, puromycin selection, IL3-independent pool
# Sequence (P00533 with tags, fused parts or gaps INS770SVD): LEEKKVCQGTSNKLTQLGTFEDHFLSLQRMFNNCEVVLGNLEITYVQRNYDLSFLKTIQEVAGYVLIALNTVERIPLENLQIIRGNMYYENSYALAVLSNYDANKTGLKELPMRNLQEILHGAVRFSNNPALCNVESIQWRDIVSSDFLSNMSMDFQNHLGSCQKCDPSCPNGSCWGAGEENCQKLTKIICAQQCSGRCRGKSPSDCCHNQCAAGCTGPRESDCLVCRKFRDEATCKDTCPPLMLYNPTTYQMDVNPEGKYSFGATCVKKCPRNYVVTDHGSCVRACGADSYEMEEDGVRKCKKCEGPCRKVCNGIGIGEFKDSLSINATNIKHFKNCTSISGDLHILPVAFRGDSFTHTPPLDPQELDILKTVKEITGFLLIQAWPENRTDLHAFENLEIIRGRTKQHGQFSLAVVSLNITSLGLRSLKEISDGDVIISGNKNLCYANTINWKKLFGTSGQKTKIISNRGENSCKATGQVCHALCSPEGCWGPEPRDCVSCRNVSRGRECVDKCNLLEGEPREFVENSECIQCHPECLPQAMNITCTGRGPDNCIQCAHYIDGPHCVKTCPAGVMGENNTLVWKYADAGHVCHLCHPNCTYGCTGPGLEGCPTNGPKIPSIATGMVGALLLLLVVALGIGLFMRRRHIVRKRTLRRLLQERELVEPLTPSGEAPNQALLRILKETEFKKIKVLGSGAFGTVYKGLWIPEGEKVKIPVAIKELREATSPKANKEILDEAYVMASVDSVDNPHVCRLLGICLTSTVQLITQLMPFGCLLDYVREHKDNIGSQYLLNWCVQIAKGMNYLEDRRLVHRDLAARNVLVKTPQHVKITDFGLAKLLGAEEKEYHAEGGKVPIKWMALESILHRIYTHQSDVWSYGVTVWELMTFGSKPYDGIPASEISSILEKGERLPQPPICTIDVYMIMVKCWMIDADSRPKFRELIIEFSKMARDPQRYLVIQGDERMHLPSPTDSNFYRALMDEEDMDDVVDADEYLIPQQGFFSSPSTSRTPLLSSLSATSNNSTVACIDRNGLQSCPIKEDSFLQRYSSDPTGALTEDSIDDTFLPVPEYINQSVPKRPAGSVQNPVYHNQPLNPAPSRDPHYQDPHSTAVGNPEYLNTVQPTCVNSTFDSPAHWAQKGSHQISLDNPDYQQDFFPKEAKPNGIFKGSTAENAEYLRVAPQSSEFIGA
# assay.remarks: Inhibitor activity on EGFR-dependent cell growth (CellTiter-Glo, 72 h), Ba/F3 EGFR exon 20 SVD Ins
# Format: cell-based
# condition.description: read-out: BaF3 SVD IC50
outcome.measure: IC50

Examples with answers:
INSERT INTO results (compound, observed_result) VALUES
  ('COCC[C@@H]1CNC(=O)c2c1[nH]c(-c1ccnc(C)n1)c2Nc1cccc(Cl)c1OC [463a]', '< 100 nM'),
  ('COc1c(F)cccc1Nc1c(-c2ccnc3ccoc23)[nH]c2c1C(=O)NCC2 [Compound 553]', '< 100 nM'),
  ('COc1c(Cl)cccc1Nc1c(-c2ccnc(NC3CC(F)(F)C3)n2)[nH]c2c1C(=O)NCC2 [Compound 712]', '> 1000 nM');

Dear colleague, could you please provide IC50 for the compounds listed below?
1. COc1cc2nccc(-c3[nH]c4c(c3Nc3cccc(F)c3OC)C(=O)NCC4)c2nc1OC [Compound 807]
2. COc1c(F)cccc1Nc1c(-c2snc3cccnc23)[nH]c2c1C(=O)NCC2 [Compound 156]
3. COc1ncc2nccc(-c3[nH]c4c(c3Nc3c(F)cccc3F)C(=O)NCC4)c2n1 [Compound 806]
4. C=CC(=O)NCC[C@@H]1CNC(=O)c2c1[nH]c(-c1ccnc(C)n1)c2Nc1cccc(Cl)c1OC [compound 654]
5. COc1c(F)cccc1Nc1c(-c2ccnc3cnc(OC4CC4)nc23)[nH]c2c1C(=O)NCC2 [compound 413]
6. COc1c(Cl)cccc1Nc1c(-c2ccncc2F)[nH]c2c1C(=O)NCC2C[C@H]1CO[C@H](CN(C)C)CO1 (single isomer, unassigned) [Compound 564]
7. COc1c(F)cccc1Nc1c(-c2ccncc2F)[nH]c2c1C(=O)NC[C@@H]2C[C@H]1CCO1 [Compound 422c]

["< 100 nM", "> 1000 nM", "> 1000 nM", "< 100 nM", "< 100 nM", "100 to 1000 nM", "100 to 1000 nM"]

# return IC50 for each item in the list
1. COc1c(F)cccc1Nc1c(-c2ccnc(-c3cnn(C)c3)c2)[nH]c2c1C(=O)NCC2 [compound 259]
2. C=CC(=O)N1CCC2(CC1)CNC(=O)c1c2[nH]c(-c2ccncc2F)c1Nc1cccc(Cl)c1CC [Compound 558]
3. COc1c(Cl)cccc1Nc1c(-c2ccncc2F)[nH]c2c1C(=O)NCC21CCOCC1 [Compound 778]
4. COc1c(F)cccc1Nc1c(-c2ccncc2F)[nH]c2c1C(=O)NC[C@H]2C[C@H]1CCO1 [Compound 422d]
5. COc1c(Cl)cccc1Nc1c(-c2ccncc2F)[nH]c2c1C(=O)NC[C@@]21CCN(C(C)=O)C1 [compound 492]

1. > 1000 nM
2. < 100 nM
3. 100 to 1000 nM
4. < 100 nM
5. > 1000 nM

* * *

Give IC50 for every item shown.
# test.target: EGFR exon 20 FQEA Ins A763_V764 (Ba/F3 cells) (Homo sapiens, UniProt P00533, INS763FQEA)
# Sequence (P00533 with tags, fused parts or gaps INS763FQEA): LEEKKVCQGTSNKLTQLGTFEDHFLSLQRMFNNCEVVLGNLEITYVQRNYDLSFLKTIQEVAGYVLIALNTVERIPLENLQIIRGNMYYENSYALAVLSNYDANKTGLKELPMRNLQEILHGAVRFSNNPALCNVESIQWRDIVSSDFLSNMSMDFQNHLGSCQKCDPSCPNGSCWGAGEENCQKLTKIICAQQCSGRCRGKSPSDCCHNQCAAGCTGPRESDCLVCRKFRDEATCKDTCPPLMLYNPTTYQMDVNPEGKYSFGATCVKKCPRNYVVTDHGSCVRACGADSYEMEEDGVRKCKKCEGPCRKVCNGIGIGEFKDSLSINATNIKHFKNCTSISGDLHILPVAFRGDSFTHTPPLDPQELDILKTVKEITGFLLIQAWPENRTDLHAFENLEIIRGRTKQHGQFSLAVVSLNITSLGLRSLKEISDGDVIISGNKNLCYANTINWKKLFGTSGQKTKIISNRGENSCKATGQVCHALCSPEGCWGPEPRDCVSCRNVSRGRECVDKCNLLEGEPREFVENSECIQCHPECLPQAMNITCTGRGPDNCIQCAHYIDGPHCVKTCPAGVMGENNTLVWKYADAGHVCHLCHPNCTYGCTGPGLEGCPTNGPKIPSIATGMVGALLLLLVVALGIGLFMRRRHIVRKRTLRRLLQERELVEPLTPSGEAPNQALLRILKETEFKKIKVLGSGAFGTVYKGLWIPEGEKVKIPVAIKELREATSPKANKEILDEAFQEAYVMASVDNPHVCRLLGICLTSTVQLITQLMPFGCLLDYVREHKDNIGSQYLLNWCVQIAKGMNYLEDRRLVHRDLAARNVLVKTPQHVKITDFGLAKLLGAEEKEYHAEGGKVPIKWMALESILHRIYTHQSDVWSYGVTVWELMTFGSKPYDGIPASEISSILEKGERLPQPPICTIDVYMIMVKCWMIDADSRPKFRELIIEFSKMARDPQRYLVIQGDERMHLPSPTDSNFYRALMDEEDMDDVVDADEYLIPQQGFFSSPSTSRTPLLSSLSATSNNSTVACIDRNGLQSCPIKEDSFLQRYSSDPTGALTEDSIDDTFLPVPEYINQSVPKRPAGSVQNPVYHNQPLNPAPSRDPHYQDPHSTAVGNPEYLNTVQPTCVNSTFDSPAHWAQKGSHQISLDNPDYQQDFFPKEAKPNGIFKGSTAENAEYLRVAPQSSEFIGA
# assay.remarks: Inhibitor activity on EGFR-dependent cell growth (CellTiter-Glo, 72 h), Ba/F3 EGFR exon 20 FQEA Ins
# condition.description: read-out: BaF3 FQEA IC50

In the examples that follow, each entry is paired with its recorded IC50.
INSERT INTO results (smiles_representation, outcome_measure, observed_result) VALUES
  ('COc1c(Cl)cccc1Nc1c(-c2ccncc2F)[nH]c2c1C(=O)NC[C@]21CCN(CC(F)F)C1', 'IC50', '< 0.1 µM'),
  ('COc1c(Cl)cccc1Nc1c(-c2ccnc3ccc(O[C@H]4CCOC4)nc23)[nH]c2c1C(=O)NCC2', 'IC50', '0.1 to 1 µM'),
  ('COc1c(Cl)cccc1Nc1c(-c2ccncc2F)[nH]c2c1C(=O)NCC2', 'IC50', '0.1 to 1 µM');

Hi team, please reply with IC50 for each item in this list.
1. COc1c(Cl)cccc1Nc1c(-c2ccnc3cnc(C4CC4)nc23)[nH]c2c1C(=O)NCC2
2. COc1c(Nc2c(-c3ccnc(N)n3)[nH]c3c2C(=O)NCC3)ccc(F)c1Cl
3. COc1c(F)cccc1Nc1c(-c2ccnc3cccnc23)[nH]c2c1C(=O)NCC2
4. COc1c(Cl)cccc1Nc1c(-c2ccnc(N)n2)[nH]c2c1C(=O)NC[C@H]2C[C@H]1COCCO1
5. Nc1nccc(-c2[nH]c3c(c2Nc2cccc4c2OCO4)C(=O)NCC3)n1

["< 0.1 µM", "> 1 µM", "< 0.1 µM", "< 0.1 µM", "0.1 to 1 µM"]
